Tested on: MOLT-4
Assay: NCI tumour cell line growth inhibition, 48 h
The source made the active and inactive calls. Rule as the data show it: active = GI50 up to about 1.1 µM and inactive = higher.
Some compounds, each annotated with its measured GI50.

Req: Query the reported GI50 for MOLT-4; item: NC(=O)C(=Cn1c(=S)[nH]c2ccc([N+](=O)[O-])cc21)C(N)=O
Resp: > 100 µM (inactive)

Req: GET /values?readout=GI50&system=MOLT-4&item= CN(C)CCCNC(=O)c1cccc2ccccc12
Resp: > 100 µM (inactive)

Req: Form field: GI50 recorded for CC(C)(C(=O)NN)c1ccccc1 with MOLT-4 (enter value)
Resp: > 100 µM (inactive)

Req: Notebook: pull reported GI50 for MOLT-4, entry CC(=O)OCC1OC(N2C(=O)[C@@H](Oc3ccccc3)[C@H]2/C=C/c2ccccc2)C(OC(C)=O)C(OC(C)=O)C1OC(C)=O (stereo partly specified)
Resp: > 100 µM (inactive)

Req: Provide value of GI50 for this record tested with MOLT-4: CC(=O)NC(C=O)C(O[C@H](C)C(=O)NC(C)C(=O)NC(CCC(N)=O)C(=O)OCc1ccccc1)C(O)C(O)COC(=O)CCNc1c2ccccc2nc2cccc([N+](=O)[O-])c12 (stereo partly specified)
Resp: 3.57 µM (inactive)

Req: Please tell me: GI50 of CCOC(=O)c1ncn2c1[nH]c(=S)c1ccccc12 , system MOLT-4?
Resp: > 100 µM (inactive)
